# tested-target: human TREM2/DAP12 fusion protein (human, UniProt O43914 41-113, limits assumed)
# Sequence (O43914 other isoform, or with tags, fused parts or gaps limits assumed): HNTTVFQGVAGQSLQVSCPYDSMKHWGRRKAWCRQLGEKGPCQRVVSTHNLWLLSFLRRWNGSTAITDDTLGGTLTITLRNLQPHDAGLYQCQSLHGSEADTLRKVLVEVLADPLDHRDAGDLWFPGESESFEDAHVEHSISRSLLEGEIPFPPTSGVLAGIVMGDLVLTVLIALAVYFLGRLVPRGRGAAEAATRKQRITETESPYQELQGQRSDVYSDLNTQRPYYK
# method-description: cell-based or functional assay
experimental-endpoint: Soluble luciferase activation at 10 µg/ml Fold over control
Please append the unit to your numeric answer.

Soluble luciferase activation at 10 µg/ml Fold over control in this record for AL2p-h43 (antibody, human IgG1, V domains shown, humanized, human IgG1; Fab and IgG formats under one id) VH: QVQLVQSGAEVKKPGASLKVSCKASGYAFSSSWMNWVRQAPGQRLEWIGRIYPGDGDTNYNGEFRVRATLTADTSASTAYMELSSLRSEDTAVYFCARLLRNQPGESYAMDYWGQGTLVTVSS VL: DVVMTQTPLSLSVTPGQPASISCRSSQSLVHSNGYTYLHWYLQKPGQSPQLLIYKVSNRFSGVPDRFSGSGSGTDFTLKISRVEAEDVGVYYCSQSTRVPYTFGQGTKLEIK : 8.65 fold over control

Next:
Soluble luciferase activation at 10 µg/ml Fold over control in this record for AL2p-h77 (antibody, human IgG1, V domains shown, humanized, human IgG1; Fab and IgG formats under one id; also called A2p-h77) VH: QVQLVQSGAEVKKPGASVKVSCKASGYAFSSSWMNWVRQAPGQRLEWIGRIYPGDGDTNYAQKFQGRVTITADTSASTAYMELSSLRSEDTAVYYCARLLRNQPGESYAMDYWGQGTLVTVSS VL: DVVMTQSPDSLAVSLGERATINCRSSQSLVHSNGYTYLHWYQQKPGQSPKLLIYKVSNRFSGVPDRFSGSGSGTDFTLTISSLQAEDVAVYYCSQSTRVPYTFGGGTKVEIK : 7.14 fold over control

Soluble luciferase activation at 10 µg/ml Fold over control in this record for AL2p-h30 (antibody, human IgG1, V domains shown, humanized, human IgG1; Fab and IgG formats under one id) VH: QVQLVQSGAEVKKPGASVKVSCKASGYAFSSSWMNWVRQAPGQGLEWMGRIYPGDGDTNYAQKFQGRVTMTADTSTSTAYMELSSLRSEDTAVYYCARLLRNQPGESYAMDYWGQGTLVTVSS VL: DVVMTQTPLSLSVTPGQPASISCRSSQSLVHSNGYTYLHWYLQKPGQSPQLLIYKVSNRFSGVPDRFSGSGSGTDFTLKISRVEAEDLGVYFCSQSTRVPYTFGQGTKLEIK : 6.01 fold over control
